Each entry below lists one item and its recorded pIC50 value.
Molecular target: beta-catenin (human)
Sequence (B6V8E6 146-665 limits assumed): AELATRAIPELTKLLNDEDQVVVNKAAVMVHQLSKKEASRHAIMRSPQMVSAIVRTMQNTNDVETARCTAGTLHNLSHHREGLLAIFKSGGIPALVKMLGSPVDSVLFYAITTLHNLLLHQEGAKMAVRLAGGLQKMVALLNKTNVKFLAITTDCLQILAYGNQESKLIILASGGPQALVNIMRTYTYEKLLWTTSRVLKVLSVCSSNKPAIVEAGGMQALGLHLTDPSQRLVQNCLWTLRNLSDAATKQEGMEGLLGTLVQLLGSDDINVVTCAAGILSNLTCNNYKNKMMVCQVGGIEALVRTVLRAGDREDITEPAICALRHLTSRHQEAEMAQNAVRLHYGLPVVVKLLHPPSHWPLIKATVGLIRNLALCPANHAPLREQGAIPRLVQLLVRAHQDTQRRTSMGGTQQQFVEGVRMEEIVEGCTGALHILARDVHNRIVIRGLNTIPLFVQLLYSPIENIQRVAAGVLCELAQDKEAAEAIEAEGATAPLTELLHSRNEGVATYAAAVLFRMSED
Test: fluorescence polarization
pIC50: −log10 of the molar value. *1 amine or outer side, *2 acyl side, *3 side chain or, on linkers, in order; H or OH if unused. Bridges are numbered along the chain shown (N, C = ends). Primed or numbered codes have the meaning given here. [ ]: non-standard residue; d: D form. B5(4) = 2-amino-2-(pent-4-en-1-yl)hept-6-enoic acid, stapled through each of its two olefin groups with other olefin-containing amino acid residues, O=C(C(CCCC=[*:3])(CCCC=[*:4])N[*:1])[*:2]; PyrS2″ = (S)-3-amino-1-((pent-4-en-1-yloxy)carbonyl)pyrrolidine-3-carboxylic acid (olefin stapling residue), C=CCCCOC(=O)N1CC[C@@](N[*:1])(C(=O)[*:2])C1; PyrS2(3) = (S)-3-amino-1-((pent-4-en-1-yloxy)carbonyl)pyrrolidine-3-carboxylic acid, olefin residue, C=CCCCOC(=O)N1CC[C@@](N[*:1])(C(=O)[*:2])C1; B5(3) = 2-amino-2-(pent-4-en-1-yl)hept-6-enoic acid, two olefin arms, C=CCCCC(CCCC=C)(N[*:1])C(=O)[*:2]; 2F3MeF″ = aromatic residue, Cc1cccc(C[C@H](N[*:1])C(=O)[*:2])c1F; Phe(3-COOH) = N[C@@H](Cc1cccc(C(=O)O)c1)C(=O)O; 2F3MeF = Cc1cccc(C[C@H](N[*:1])C(=O)[*:2])c1F; Bta = N[C@@H](Cc1csc2ccccc12)C(=O)O; αAllylPro = C=CC[C@@]1(C(=O)O)CCCN1; tBuAla = CC(C)(C)C[C@H](N)C(=O)O; TfeGA = not defined here; GlnR = not defined here; Aib = CC(C)(N)C(=O)O

BINDER	RESULT TYPE	REPORTED MEASUREMENT
Ac-[αAllylPro]D[tBuAla][B5(3)]D[Phe(3-COOH)][Aib]AFK[PyrS2(3)][2F3MeF″][Bta][GlnR]A-NH2 (bridge 10-14; not fully specified (bridges); printed as Ac-PL3-Asp-Npg-B5-Asp-3COOHF-Aib-Ala-Phe-Lys*3-PyrS2-2F3MeF-BztA-GlnR*3-Ala-NH2; reading uncertain) [I-68]	pIC50	> 7.30

Could you now consider this next binder?
Query: Look up pIC50: Ac-[αAllylPro]D[tBuAla][B5(4)]D[TfeGA]AAFK[PyrS2″][2F3MeF][Bta][GlnR][Aib]-NH2 (bridge 10-14; not fully specified (bridges); reading uncertain; also: Lys*3 and GlnR*3 marked *3) [I-127]
Reply: > 7.30
